Test system: 817829-284-R-J1-PDC complex spheroids, viability;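 note: spheroids exposed to agents for 7 days before readout; percent viability relative to DMSO vehicle control taken as 100%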
Test: Anticancer human tumor 817829-284-R-J1-PDC patient-derived colon adenocarcinoma cell line growth inhibition [GQUAD]
Conditions: second compound 1 µM; first compound 1 µM; hits give low values
Please assign 0 (no) whenever viability, T/C is at or above 20%, and 1 (yes) whenever it is below.

Please review the entries below; each comes with its answer.
CC(C)n1c(=O)n(C)c2cnc3cc(F)c(-c4ccc(OCCCN5CCCCC5)nc4)cc3c21 + Cc1cnc(CNC(=O)c2c(=O)c3ccc(N4CCCN(C)CC4)nc3n3c2sc2ccccc23)cn1 = 0 (no)
O=C(NO)c1cnc(N2CCN(S(=O)(=O)c3ccc4ccccc4c3)CC2)nc1 + Cc1[nH]c2ccc(F)cc2c1-c1nc2c3cccnc3c3ncccc3c2[nH]1 = 1 (yes)
CCCS(=O)(=O)Nc1ccc(F)c(C(=O)c2c[nH]c3ncc(-c4ccc(Cl)cc4)cc23)c1F + Cc1cnc(CNC(=O)c2c(=O)c3ccc(N4CCCN(C)CC4)nc3n3c2sc2ccccc23)cn1 = 1 (yes)
COc1cccc2c1C(=O)c1c(O)c3c(c(O)c1C2=O)CC(O)(C(=O)CO)CC3OC1CC(N)C(O)C(C)O1 (stereo not given) + Cc1cnc(CNC(=O)c2c(=O)c3ccc(N4CCCN(C)CC4)nc3n3c2sc2ccccc23)cn1 = 1 (yes)
C=CCn1c(=O)c2cnc(Nc3ccc(N4CCN(C)CC4)cc3)nc2n1-c1cccc(C(C)(C)O)n1 + Cc1cnc(CNC(=O)c2c(=O)c3ccc(N4CCCN(C)CC4)nc3n3c2sc2ccccc23)cn1 = 1 (yes)
CC1COCCN1c1cc(C2(O)CC3CCC(C2)O3)c2cnn(-c3ccn[nH]3)c2n1 (stereo not given) + Cc1[nH]c2ccc(F)cc2c1-c1nc2c3cccnc3c3ncccc3c2[nH]1 = 1 (yes)
COc1ncnc(C2CC2)c1-c1ncc2cnn(Cc3ccc(-c4nc(C(F)(F)F)cn4C(C)C)cc3)c2n1 + CN(C)c1ccc(Nc2c3ccc(NC(=O)CCN4CCCC4)cc3nc3cc(NC(=O)CCN4CCCC4)ccc23)cc1 = 0 (no)
C#Cc1c(F)ccc2cc(O)cc(-c3ncc4c(N5CC6CCC(C5)N6)nc(OCC56CCCN5CC(F)C6)nc4c3F)c12 (stereo not given) + Cc1[nH]c2ccc(F)cc2c1-c1nc2c3cccnc3c3ncccc3c2[nH]1 = 0 (no)

Does the reported viability, T/C of C=CC(=O)N1CCN(c2nc(=O)n(-c3c(C)ccnc3C(C)C)c3nc(-c4c(O)cccc4F)c(F)cc23)C(C)C1 (stereo not given) + CN(C)c1ccc(Nc2c3ccc(NC(=O)CCN4CCCC4)cc3nc3cc(NC(=O)CCN4CCCC4)ccc23)cc1 stay below 20%?
0 (no)

Please indicate whether the reported viability, T/C of COc1cc(C2c3cc4c(cc3C(OC3OC5COC(C)OC5C(O)C3O)C3COC(=O)C23)OCO4)cc(OC)c1O (stereo not given) + CN(C)c1ccc(Nc2c3ccc(NC(=O)CCN4CCCC4)cc3nc3cc(NC(=O)CCN4CCCC4)ccc23)cc1 is strictly below 20%.
0 (no)

Below 20% on viability, T/C? Entry COc1cc(C2c3cc4c(cc3C(OC3OC5COC(C)OC5C(O)C3O)C3COC(=O)C23)OCO4)cc(OC)c1O (stereo not given) + Cc1cnc(CNC(=O)c2c(=O)c3ccc(N4CCCN(C)CC4)nc3n3c2sc2ccccc23)cn1
0 (no)

Bench note: check whether O=C(NO)c1cnc(N2CCN(S(=O)(=O)c3ccc4ccccc4c3)CC2)nc1 + CN(C)c1ccc(Nc2c3ccc(NC(=O)CCN4CCCC4)cc3nc3cc(NC(=O)CCN4CCCC4)ccc23)cc1 shows viability, T/C below 20%
1 (yes)

Answer whether the compound C=CCn1c(=O)c2cnc(Nc3ccc(N4CCN(C)CC4)cc3)nc2n1-c1cccc(C(C)(C)O)n1 + Cc1[nH]c2ccc(F)cc2c1-c1nc2c3cccnc3c3ncccc3c2[nH]1 has viability, T/C strictly less than 20%
1 (yes)

Criterion: viability, T/C strictly below 20%. Is it met by C=CC(=O)N1CCN(c2nc(=O)n(-c3c(C)ccnc3C(C)C)c3nc(-c4c(O)cccc4F)c(F)cc23)C(C)C1 (stereo not given) + Cc1[nH]c2ccc(F)cc2c1-c1nc2c3cccnc3c3ncccc3c2[nH]1 ?
0 (no)

Hello, I'm reviewing records and need to know if viability, T/C of COc1ccc([C@@H](O)c2cc(-c3ncnc4cc(N5CCOCC5)ccc34)c(F)cc2Cl)nn1 + CN(C)c1ccc(Nc2c3ccc(NC(=O)CCN4CCCC4)cc3nc3cc(NC(=O)CCN4CCCC4)ccc23)cc1 is below 20%. Could you check?
0 (no)

In plain terms, does Nc1ccn(C2OC(CO)C(O)C2(F)F)c(=O)n1 (stereo not given) + Cc1[nH]c2ccc(F)cc2c1-c1nc2c3cccnc3c3ncccc3c2[nH]1 come in under 20% for viability, T/C?
1 (yes)

Confirm or reject: viability, T/C of C=CC(=O)N1CCN(c2nc(=O)n(-c3c(C)ccnc3C(C)C)c3nc(-c4c(O)cccc4F)c(F)cc23)C(C)C1 (stereo not given) + Cc1cnc(CNC(=O)c2c(=O)c3ccc(N4CCCN(C)CC4)nc3n3c2sc2ccccc23)cn1 lies strictly below 20%
0 (no)

Problem: For the compound CC1COCCN1c1cc(C2(O)CC3CCC(C2)O3)c2cnn(-c3ccn[nH]3)c2n1 (stereo not given) + Cc1cnc(CNC(=O)c2c(=O)c3ccc(N4CCCN(C)CC4)nc3n3c2sc2ccccc23)cn1 , is viability, T/C under 20%?
1 (yes)

Record Cc1cccc(N(C)C(=O)C2C(O)CCN2c2nc(C)cc(C(F)(F)F)c2C#N)c1 (stereo not given) + CN(C)c1ccc(Nc2c3ccc(NC(=O)CCN4CCCC4)cc3nc3cc(NC(=O)CCN4CCCC4)ccc23)cc1 : is its viability, T/C strictly below 20%?
0 (no)

Below 20% on viability, T/C? Entry CC1COCCN1c1cc(C2(S(C)(=N)=O)CC2)nc(-c2ccnc3[nH]ccc23)n1 (stereo not given) + Cc1cnc(CNC(=O)c2c(=O)c3ccc(N4CCCN(C)CC4)nc3n3c2sc2ccccc23)cn1
1 (yes)
